Molecular target: cynomolgus HER2 antigen (cynomolgus monkey)
Experiment: SPR (ProteOn XPR36), IgG captured by anti-human Fc, soluble monovalent antigen, 1:1 fit

binder	unit tag	koff
chimeric anti-HER2 antibody 4384 (antibody, V domains shown, light chain entry is full length) VH: QVQLQQPGTELVKPGASVKLSCKASGYTFTSHWMHWVKQRPGQGLEWIGNINPSNGGTNYNEKFKSRATLTVDKASSTAYMQLSSLTSEDSAVYYCARAYYDFSWFVYWGQGTLVTVS VL: DIQMTQTSSSLSASLGDRVTISCRSSQDISNYLNWYQQKPDGTVKLLMYISRLHSGVPSRFSGSGSGTEYSLTISNLEQEDIATYFCQQGNTLPLTFGAGTKLELKR	s⁻¹	0.0005
